# Run Description: In vitro stability of drug-linker / model drug-linker compounds to spontaneous hydrolysis of the methylene carbamate unit (LC/MS)
# Format: physicochemical
# Run Parameters: 0.1M PBS, pH 7.4, at 37° C.
Readout Name: Relative Degradation Half-life Observed by LC/MS

Compound: CCN(COC(C)(C)Cc1ccccc1)C(=O)OCc1ccc(O[C@@H]2O[C@H](C(=O)O)[C@@H](O)[C@H](O)[C@H]2O)c(NC(C)=O)c1
Result: 170 h
--
Compound: CCN(COC(C)Cc1ccccc1)C(=O)OCc1ccc(O[C@@H]2O[C@H](C(=O)O)[C@@H](O)[C@H](O)[C@H]2O)c(NC(C)=O)c1 (stereo partly drawn)
Result: None Observed
--
Compound: CCN(COCCc1ccccc1)C(=O)OCc1ccc(O[C@@H]2O[C@H](C(=O)O)[C@@H](O)[C@H](O)[C@H]2O)c(NC(C)=O)c1
Result: 170 h
--
Compound: CCN(COc1cccc2ccccc12)C(=O)OCc1ccc(O[C@@H]2O[C@H](C(=O)O)[C@@H](O)[C@H](O)[C@H]2O)c(NC(C)=O)c1
Result: None Observed
--
Compound: CCN(CSCCc1ccccc1)C(=O)OCc1ccc(O[C@@H]2O[C@H](C(=O)O)[C@@H](O)[C@H](O)[C@H]2O)c(NC(C)=O)c1
Result: None Observed
--
Compound: COCCOCCOCCOCCOCCOCCOCCOCCN(COC(C)Cc1ccccc1)C(=O)OCc1ccc(O[C@@H]2O[C@H](C(=O)O)[C@@H](O)[C@H](O)[C@H]2O)c(NC(C)=O)c1 (stereo partly drawn)
Result: None Observed

These data points were gathered from patent US11116847B2.
